Values were extracted from PubChem BioAssay (NCI).

- testProtocol: NCI Yeast Anticancer Drug Screen. Data for the mec2-1 strain (AID 157)
- measurementParameters: S. cerevisiae mec2-1 strain, at 50.0 µM, active compounds read high
About 79,000 compounds went through this panel and 15% of them were active in at least one assay; those are over-represented in the sample as a whole.
metricName: growth inhibition (%)
Give bare numbers, in %.

Worked examples follow.
>>> recordednumber("N=c1ccc2ccccc2n1O")
-3.85
>>> recordednumber("CNc1ncnc2c1ncn2C1OC(CO)C(O)C1O (stereo unspecified)")
9.95
>>> recordednumber("COc1ccc(/C=C2\\N=C(c3ccccc3)OC2=O)c(OC)c1C")
-4.9
>>> recordednumber("OCCOc1ccc(Cl)cc1Cl")
-32
>>> recordednumber("CN(C)c1ccc(C(Cc2ccccc2)C2NC(=S)NC2=O)cc1 (stereo unspecified)")
-34.5

Return reported growth inhibition values for all items listed beneath this line.
1. COc1ccc(C(O)Cc2ccccc2)cc1 (stereo unspecified)
2. O=S(=O)(Nc1nc2ccccc2nc1N1CCCCCC1)c1ccccc1
3. Clc1ccccc1-n1cccc1/C=N\N=C/c1cccn1-c1ccccc1Cl

Result:
1: -19.4; 2: -8.35; 3: 1.7

I need growth inhibition for every entry listed below, if you could help.
1. O=c1[nH]cc(Cl)cc1Cl
2. Cc1cc(N2CCOCC2)nc2ccc(Cc3ccc4nc(N5CCOCC5)cc(C)c4c3)cc12
3. OCC1OC(n2cnc3c(Cl)nc(Nc4ccc(Cl)c(Cl)c4)nc32)CC1O (stereo unspecified)
4. CCCCc1c2c([n+]([O-])c3c1CCCC3)CCCC2
5. O=C(O)c1cc(=O)c2cc3c(cc2o1)OCc1ccccc1-3
6. CC1(C)CC2CC(CC(C)(C)C2=O)C1=O

Result:
1. 3.85
2. -10.2
3. -0.2
4. 30.3
5. -6.15
6. -11

For every item below, please supply its growth inhibition.
1. c1ccc2c(-c3nn[nH]n3)nccc2c1
2. Cc1cc(=O)[nH]c(N/N=C2/CCCCC2C)n1 (stereo unspecified)
3. NCC(=O)N1CCCC1C(=O)O (stereo unspecified)
4. O=[N+]([O-])c1ccccc1OC1OC(CO)C(O)C(O)C1O (stereo unspecified)
5. COC(=O)C1(C)CCCC2(C)c3cc(OC)ccc3C(=O)C(Cl)C12 (stereo unspecified)
6. Nc1ccnn2c(-c3ccccc3)nnc12
7. C=CCC(O)c1ccc(OC)c(OC)c1 (stereo unspecified)
8. N#CC1(Cc2ccccc2)c2ccccc2-c2ccccc21

Result:
1. -16.2
2. -25
3. -6.3
4. -5.6
5. 0.15
6. 1.85
7. -3.3
8. 27.8

Hi there! I need growth inhibition for each item below, if you can.
1. O=C(NCc1ccc(Cl)c(Cl)c1)Nc1ccccc1Cl
2. CCN(S(C)(=O)=O)S(C)(=O)=O
3. CC(=O)OCCOC1c2ccccc2-c2ccccc21
4. O=C(Nc1cccc(Cl)c1Cl)Oc1cccc2ccccc12

Result:
1. 24.4
2. -2.5
3. -2.75
4. 5.15

###

- testProtocol: NCI Yeast Anticancer Drug Screen. Data for the mec2-1 strain (AID 157)
- measurementParameters: S. cerevisiae mec2-1 strain, at 50.0 µM
- Procedure: Growth inhibition of yeast strains with defined genetic alterations is measured as a screen for potential anti-cancer activity. Selected strains with alterations in DNA damage repair or cell cycle control were exposed to compounds and growth inhibition was measured relative to vehicle treated controls. The strain used in this assay is mec2-1
This is part of a sample that, as a whole, favours compounds with a hit. Of some 79,000 tested, about 15% had one in any assay. Calls of active or inactive are those of the source. No stated cut-off is given here; in the data, active means growth inhibition above about 70%; inactive means the rest.
Parameter call: string, one of active, inactive

>>> labelvalue("CNc1ccc(C(=O)NC(CCC(=O)O)C(=O)O)cc1I (configuration not stated)")
"inactive"
>>> labelvalue("O=C1OCCC1(Cc1ccc(Cl)cc1)Cc1ccc(Cl)cc1")
"inactive"
>>> labelvalue("COc1ccc(C(C)S(=O)(=O)c2ccccc2)cc1OC (configuration not stated)")
"inactive"
>>> labelvalue("CCCC(=O)NC(C)(C)C")
"inactive"

Q: So what was the verdict on BrC1=C(c2ccccc2)C2CCCCC2C1(Br)c1ccccc1 (configuration not stated) in this test?
Result: active

Q: Identify the outcome logged in this assay for the molecule shown: O=C(NC(=O)C(F)(F)C(F)(F)F)Nc1cc(F)ccc1F
Result: inactive

Q: GET /call?item= C=CCc1oc(C)nc1CCCC returns the recorded outcome of this test.
Result: inactive

###

- testProtocol: NCI Yeast Anticancer Drug Screen. Data for the bub3 strain (AID 167)
- measurementParameters: S. cerevisiae bub3 mutant strain, at 50.0 µM
About 79,000 compounds went through this panel and 15% of them were active in at least one assay; those are over-represented in the sample as a whole. Activity calls are given as the source filed them. Rule as the data show it: active = growth inhibition above about 70%; inactive = the rest.
Mark one answer only. Choices: True for active, False for inactive

Worked set:
>>> labelvalue("Nc1c(F)c(F)c(C(=O)O)c(F)c1F")
"False"
>>> labelvalue("CC(=O)/C=C(\\O)c1c(C)[nH]c2ccccc12")
"False"
>>> labelvalue("Nc1cc2c(cc1Br)-c1ccc(Br)cc1C2=O")
"False"
>>> labelvalue("CCC1(O)CCCCC1")
"False"
>>> labelvalue("NC(Cc1ccc(CP(=O)(O)O)cc1)C(=O)O (configuration not stated)")
"False"

Q: So what was the verdict on CN(C(=O)CCCO)c1cc([N+](=O)[O-])ccc1OCc1ccccc1 in this test?
Result: False

Q: Query: recorded result category for Oc1ccc(-c2csc(Nc3ccccn3)n2)cc1O in this test
Result: True

Q: Test call, this compound: CCN(C/C=C/CN(CC)C(=S)Nc1ccccc1)C(=S)Nc1ccccc1
Result: False

###

- testProtocol: NCI Yeast Anticancer Drug Screen. Data for the sgs1 mgt1 strain (AID 161);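 also: 0% = growth of cultures given vehicle only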
- measurementParameters: S. cerevisiae sgs1 mgt1 strain, at 50.0 µM, active compounds read high
- Experimental: Growth inhibition of yeast strains with defined genetic alterations is measured as a screen for potential anti-cancer activity. Selected strains with alterations in DNA damage repair or cell cycle control were exposed to compounds and growth inhibition was measured relative to vehicle treated controls. The strain used in this assay is sgs1 mgt1
About 79,000 compounds went through this panel and 15% of them were active in at least one assay; those are over-represented in the sample as a whole.
metricName: growth inhibition (%)
Numbers only, in %.

>>> recordednumber("CC(=O)On1c(-c2ccccc2-c2nc3ccccc3n2OC(C)=O)nc2ccccc21")
13.4

Hey, can you go through the list below and give me growth inhibition for every item?
1. O=C(NCCCl)Nc1[nH]c(=O)ncc1I
2. CCC(C)C(C)(O)CC (stereo not given)
3. COc1ccc2c(c1)CCCN2c1ccc(N=C(N)N)cc1
4. CC(C)CCCC(C)C1CCC2C3C=C(C(=O)O)C(C)(CCC(=O)O)C3CCC12C (stereo not given)
5. O=[N+]([O-])c1ccc(N(CCO)CCO)nc1
6. NNC(=O)c1ccc(OCc2nc3ccccc3[nH]2)cc1

Result:
1.1
-21.8
-1.75
42
5.15
1.2

###

Please respond with reported growth inhibition for every item in the list.
- testProtocol: NCI Yeast Anticancer Drug Screen. Data for the rad50 strain (AID 155);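 also: 0% = growth of vehicle-only cultures of the same strain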
- measurementParameters: S. cerevisiae rad50 strain growth inhibition; at 50.0 µM; active compounds read high
The panel holds about 79,000 compounds, 15% with a hit somewhere; the sample as a whole holds those more often.
One number for each entry, in %.

>>> recordednumber("C=C1C(OC(C)=O)CC(OC(C)=O)C2(C)C(OC(C)=O)C(OC(C)=O)C3=C(C)C(OC(=O)/C=C/c4ccccc4)CC(C(OC(C)=O)C12)C3(C)C (centres undefined)")
4.8
>>> recordednumber("O=C(Nc1ccc([N+](=O)[O-])cc1)N1CCOCC1")
4.8
>>> recordednumber("O=C1NCC(c2ccccc2)(C2CC2)O1 (centres undefined)")
7.85

Provide growth inhibition values for the following items, in order.
1. Oc1cc(O)c2c(c1)O[C@@H](c1ccc(O)c(O)c1)[C@H](O)C2
2. COC1CCC2(C)C3CCC4C(=CCC5C(C)(C)C(=O)CCC45C)CC3(C)CCC2C1(C)C (centres undefined)

Result:
5.75
16.3

Consider the following items and state reported growth inhibition for each.
1. OC1CCC(c2ccccc2)CC1 (centres undefined)
2. C[Si](C)(CCCOC(N)=O)COC(N)=O
3. CC/C(C)=N/NS(=O)(=O)c1ccc(C)cc1
4. CCCS(=O)(=O)N1CC(C)OC(C)C1 (centres undefined)

Result:
[29.1, -15.2, 43.9, 2.35]

###

- testProtocol: NCI Yeast Anticancer Drug Screen. Data for the bub3 strain (AID 167)
- measurementParameters: S. cerevisiae bub3 mutant strain, at 50.0 µM, active compounds read high
Compounds without any hit were thinned out: in the full panel of roughly 79,000, 15% have a hit.
metricName: growth inhibition (%)
One number for each entry, in %.

Some compounds with known growth inhibition results, for comparison:
>>> recordednumber("CCN(CC)CCNc1c(C)cccc1Cl")
1
>>> recordednumber("N#Cc1cc([N+](=O)[O-])ccc1NC(=O)C(=O)Nn1c(=S)[nH]c2ccccc2c1=O")
10.3
>>> recordednumber("CC(=O)NNc1nc(C)c(C(=O)/C=C/C=C/c2ccccc2)s1")
13.1
>>> recordednumber("COC(=O)NN(C(=O)OC)C12CCCCC1N(C(=O)OC)N(C(=O)OC)c1c2ccc2cc(OC)ccc12 (stereo unspecified)")
4.2
>>> recordednumber("COc1ccc(C2C(Cl)C(=O)N2n2cnc3ccccc3c2=O)cc1OC (stereo unspecified)")
-10.9

Hey, quick one: what's growth inhibition for each of these?
1. Cc1ccc(S(=O)(=O)N2CCCC2C(=O)O[C@H]2CC[C@H]3CC=C[C@H]32)cc1 (stereo partly specified)
2. O=[N+]([O-])c1ccc(N/N=C/c2ccccc2O)c([N+](=O)[O-])c1
3. S=c1cn[nH]c2ccccc12
4. Cc1ccsc1/C=N/Nc1cnccn1
5. COc1cc(C(C#N)NNC(=O)c2ccccc2O)ccc1O (stereo unspecified)
6. C[n+]1ccccc1/C=C/c1cccc([N+](=O)[O-])c1

Result:
1. -5.25
2. 1.05
3. 49.6
4. 0.4
5. 66.2
6. 7.8
